Provenance of the data: ChEMBL document CHEMBL5150041

Molecular target: Melanocyte-stimulating hormone receptor (Homo sapiens, UniProt Q01726)
Sequence (Q01726 whole entry): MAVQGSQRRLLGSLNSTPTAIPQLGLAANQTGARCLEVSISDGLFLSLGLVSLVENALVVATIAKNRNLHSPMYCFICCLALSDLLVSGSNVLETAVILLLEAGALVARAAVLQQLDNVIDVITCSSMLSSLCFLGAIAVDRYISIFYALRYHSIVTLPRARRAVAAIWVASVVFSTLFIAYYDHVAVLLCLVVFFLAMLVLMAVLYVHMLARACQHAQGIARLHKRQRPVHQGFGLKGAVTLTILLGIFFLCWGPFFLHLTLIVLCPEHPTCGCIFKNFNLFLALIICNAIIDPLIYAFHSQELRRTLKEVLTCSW
Test: Agonist activity at human MC1R assessed as increase in alpha-MSH induced cAMP level
Field: EC50. Provide a value for each of the molecules that follow.

Past entries and their recorded results:
compound structure: CC(C)(C)N1C[C@@H](C(=O)Nc2nc3ccccc3n2-c2ccccc2)[C@H](c2ccc(F)cc2F)C1
EC50: > 10 µM
//
compound structure: CC(C)(C)N1C[C@@H](C(=O)Nc2ccccc2Cc2ccccc2)[C@H](c2ccc(F)cc2F)C1
EC50: > 10 µM
//
compound structure: CC(C)(C)N1C[C@@H](C(=O)Nc2nccn2Cc2ccc(Cl)cc2)[C@H](c2ccc(F)cc2F)C1
EC50: > 10 µM
//
compound structure: Cn1c(NC(=O)[C@@H]2CN(C(C)(C)C)C[C@H]2c2ccc(F)cc2F)nc2ccccc21
EC50: > 10 µM

Turning now to a further record.
Data request, read-out EC50, for CC(C)(C)N1C[C@@H](C(=O)Nc2ncnn2Cc2ccccc2)[C@H](c2ccc(F)cc2F)C1
> 10 µM
